Recorded MIC, one value per entry.
tested on: Staphylococcus aureus; experiment: microbe, parasite or virus in culture; conditions: ATCC 29213
Description: Antibacterial activity against Staphylococcus aureus ATCC 29213 incubated for 16 to 20 hrs

Record excerpt, results attached:
CC(=O)Nc1nc(C)c(-c2csc(Nc3ccc(O)cc3)n2)s1: > 256 µg/mL
Cc1nc(N)sc1-c1csc(Nc2ccc(S(N)(=O)=O)cc2)n1: > 256 µg/mL
CCC(=O)Nc1nc(C)c(-c2csc(Nc3ccc(C(=O)O)cc3)n2)s1: > 256 µg/mL
Cc1nc(N)sc1-c1csc(Nc2ccc(O)cc2)n1: 64 µg/mL

**Q:** Requested read-out: MIC. Entry: `CC(=O)Nc1nc(C)c(-c2csc(Nc3ccc(C(=O)O)cc3)n2)s1`
**A:** 256 µg/mL

**Q:** Requested read-out: MIC. Entry: `Cc1nc(N)sc1-c1csc(Nc2ccc(C(=O)O)c(O)c2)n1`
**A:** 256 µg/mL

Origin of measurements: ChEMBL document CHEMBL2163228
